# Test system: K24384-001-R-PDC KRAS patient-derived spheroid viability;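 also: spheroids exposed to agents for 7 days before readout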
# experimentalDetails: Anticancer human tumor K24384-001-R-PDC patient-derived pancreatic adenocarcinoma cell line growth inhibition [KRAS2]; active = viability on the fitted dose curve at most 10% of control; inactive = the rest
# recordedConditions: second compound 10 µM; first compound 0.0316 µM; spheroids with HUVEC and MSC
Outcome field: choose from active, inactive

Some entries whose results are on file:
>>> cat("CC1(C)CCC(CN2CCN(c3ccc(C(=O)NS(=O)(=O)c4ccc(NCC5CCOCC5)c([N+](=O)[O-])c4)c(Oc4cnc5[nH]ccc5c4)c3)CC2)=C(c2ccc(Cl)cc2)C1 + C=CC(=O)N1CCN(c2nc(=O)n(-c3c(C)ccnc3C(C)C)c3nc(-c4c(O)cccc4F)c(F)cc23)C(C)C1")
"inactive"
>>> cat("CC1(C)CCC(CN2CCN(c3ccc(C(=O)NS(=O)(=O)c4ccc(NCC5CCOCC5)c([N+](=O)[O-])c4)c(Oc4cnc5[nH]ccc5c4)c3)CC2)=C(c2ccc(Cl)cc2)C1 + CNCc1ccccc1-c1csc(C(C)Nc2nc(C)nc3cc(OC)c(OC)cc23)c1")
"active"
>>> cat("CC1(C)CCC(CN2CCN(c3ccc(C(=O)NS(=O)(=O)c4ccc(NCC5CCOCC5)c([N+](=O)[O-])c4)c(Oc4cnc5[nH]ccc5c4)c3)CC2)=C(c2ccc(Cl)cc2)C1 + COc1cc2nc(C)nc(NC(C)c3cc(N)cc(C(F)(F)F)c3)c2cc1OC1CCOC1")
"inactive"
>>> cat("CCN1CCN(Cc2ccc(Nc3ncc(F)c(-c4cc(F)c5nc(C)n(C(C)C)c5c4)n3)nc2)CC1 + COc1cc2nc(C)nc(NC(C)c3cc(N)cc(C(F)(F)F)c3)c2cc1OC1CCOC1")
"inactive"

Attention now shifts to the item below.
Lookup: Tell me the assay call for CC(C)n1nc(-c2ccc3oc(N)nc3c2)c2c(N)ncnc21 + CC1OCC2(CCN(c3cnc(Sc4ccnc(N)c4Cl)c(N)n3)CC2)C1N please.
Found: inactive

Data origin: PubChem BioAssay AID1963857
